molecular target: T1, cynomolgus CD38 ECD (cynomolgus, UniProt Q5VAN0 44-301, biotinylated on the AviTag during preparation); test: SPR (Biacore 8K), antibody captured, antigen injected;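 further: antibodies held on a CM5 chip through anti-human IgG Fc, antigen in 3-fold serial dilutions, 1 min association then 10 min dissociation at 25 °C, 1:1 Langmuir global fit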
T1 construct: also called Cyno-CD38; Avi-Cyno CD38 ECD
measure: kon (M⁻¹ s⁻¹)

{"columns": ["binder", "unitDescriptor", "measuredValue"],
 "data": [
  ["1E2 (antibody, human IgG1, kappa, V domains shown, Rabbit-human chimeric anti-CD38: rabbit VH and VL on human IgG1 and kappa constant regions) VH: QSVEESGGRLVTPGTPLTLTCTVSGIDLNSYAMGWVRQAPGKGLKYIGIMTSGGNIYYANWAKGRFTISKTSTTVDLRITSPTTEDTATYFCAREREFYGGGTSGSRLDLWGQGTLVTVSS VL: AYDMTQTPASVEAAVGGTVTIKCQASQSIYNFLNWYQQKPGQPPKLLIYYASTLAFGVPSRFKGSGSGTEYTLTISGVESADAATYYCQQGWNSGILDNSFGGGTEVVVKR", "M⁻¹ s⁻¹", 182000],
  ["25E4 (antibody, human IgG1, kappa, V domains shown, Rabbit-human chimeric anti-CD38: rabbit VH and VL on human IgG1 and kappa constant regions) VH: QSLEESGGRLVTPGTPLTLTCTVSGIDLSIYTMAWVRQAPGKGLEYIGIISGYGTTYYATWAKGRFIVSKTSTTVDLKITSPTTEDTATYFCVRTTVQSTDLWGPGTLVTVSS VL: DIVMTQTPASVEAAVGGTVTINCQASQNIYSNLAWYQQKPGQRPKLLIYKASTLASGVSSRFKGSGSGTEFTLTISDLASADAATYYCQSYYGATSSSFGYGFGGGTEVVVKR", "M⁻¹ s⁻¹", "1.23e+06"],
  ["18E4 (antibody, human IgG1, kappa, V domains shown, Rabbit-human chimeric anti-CD38: rabbit VH and VL on human IgG1 and kappa constant regions) VH: QSLEESGGDLVKPGASLTLTCTASGFSFNNYWICWIRQAPGKGLEWVACIYSPSGDIKYYANWAKGRFTVSKTSSTTVTLQMTSLTGADTATYFCARELSGSSYEGYFESWGPGTLVTVSS VL: AQVLTQTPSSVSAAVGGTVTINCQCSQSVYGHNWLAWYQHKPGQPPKLLMYRASNLASGVPSRFKGSGSGSQFTLTIGEVQSDDAATYYCQGYYNGGSYAFGGGTEVVVRR", "M⁻¹ s⁻¹", 563000]
]}

Where do these numbers come from? They come from patent US20220002432A1.
